- System: OVCAR-5
- PROTOCOL DETAILS: NCI tumour cell line growth inhibition, 48 h
Calls of active or inactive are those of the source. Cut-off read from the data, not from the text of the source: active = GI50 up to about 1.1 µM and inactive = higher.
Possible outcomes: yes (1) (active), no (0) (inactive)

| COMPOUND | TARGET OR TEST SYSTEM | GROUP |
| --- | --- | --- |
| C=CC[C@H](O)[C@@](NC(=O)OCc1ccccc1)(Sc1ccc(C)cc1)C(F)(F)F | OVCAR-5 | no (0) |
| Cc1ccc(N2C(=O)C3c4[nH]c5ccc(C)cc5c4C4CCC(C(C)(C)C)CC4C3C2=O)cc1 (configuration not stated) | OVCAR-5 | no (0) |
| COC(=O)[C@@H]1C[C@H](c2ccc(OC)c(OC)c2)OC1=O.COC(=O)[C@H]1C[C@H](c2ccc(OC)c(OC)c2)OC1=O | OVCAR-5 | no (0) |
| C/C(N)=[N+](/C)[O-] | OVCAR-5 | no (0) |
| CCOc1ccccc1/N=N/c1c(-c2ccccc2)nn(C(=O)CC(=O)Nc2cccc(Cl)c2)c1-c1ccccc1 | OVCAR-5 | no (0) |
| COc1c2c(cc3occ(-c4ccc(CC=C(C)C)cc4)c(=O)c13)OC(C)(C)C=C2 | OVCAR-5 | no (0) |
| Nc1ccc2nc3c(nc2c1)C(=O)c1ccccc1-3 | OVCAR-5 | no (0) |
| Cc1ccc(Sc2ccccc2C23OC(C)(C4C(=O)N(c5ccccc5)C(=O)C42)N(C)C3=O)cc1 (configuration not stated) | OVCAR-5 | no (0) |
| CCOC(=O)c1nc2ccc(C(F)(F)F)cc2nc1Nc1ccc(Cl)c(Cl)c1 | OVCAR-5 | no (0) |
| c1ccc2c(c1)[n-]n1c3ccc4nonc4c3n[n+]21 | OVCAR-5 | no (0) |
| N/N=C1\C(=O)N(C2CCCCCC2)C(=O)C1C(=O)NC1CCCCCC1 (configuration not stated) | OVCAR-5 | no (0) |
| Cc1ccc2c(/C=C/c3ccc(N(C)C)cc3)ccnc2c1C | OVCAR-5 | no (0) |
| CSC1=NN(c2ccccc2)C(=O)C1=C(SC)SC | OVCAR-5 | no (0) |
| CCn1cc2c(=O)n3ncn(-c4ccc(Br)cc4)c3nc2n1 | OVCAR-5 | no (0) |
| C=CCN1/C(=C2\SC(=S)N(c3ccc(C)cc3)C2=O)Sc2c1ncn(C)c2=O | OVCAR-5 | no (0) |
| Cc1cc(-c2cc(C(C)(C)C)c(O)c(C(C)(C)C)c2)c(C)cc1-c1cc(C(C)(C)C)c(O)c(C(C)(C)C)c1 | OVCAR-5 | no (0) |
| Cc1c(-c2coc(-c3ccc(Cl)cc3)n2)c(=O)n(-c2ccccc2)n1C | OVCAR-5 | no (0) |
| CCC1(O)C=CC(=O)C=C1 | OVCAR-5 | no (0) |
| FC(F)(F)c1cc(Cl)cnc1N/N=C(/c1ccccc1)c1ccccn1 | OVCAR-5 | no (0) |
| CCN(CC)c1c(N(CC)CC)c(=O)c1=O | OVCAR-5 | no (0) |
| Cc1c(Cl)cccc1NC(=O)C(=O)c1c(O)c2ccc(O)cc2oc1=O | OVCAR-5 | no (0) |
| CN1CCC(O)(C(C)(C)C)CC1 | OVCAR-5 | no (0) |
| O/N=N/c1ccc2ccccc2n1 | OVCAR-5 | no (0) |
| CC(=O)Oc1c2ccsc2c(OC(C)=O)c2ccsc12 | OVCAR-5 | no (0) |
| COC(COC(N)=O)C1=C(N2CC2)C(=O)C(C)=C(N2CC2)C1=O (configuration not stated) | OVCAR-5 | yes (1) |
| Nc1nc(F)nc2c1ncn2C1OC(CO)C(O)C1O (configuration not stated) | OVCAR-5 | no (0) |
| COc1ccc2c(c1)C1c3ccccc3CCN1CCC2 (configuration not stated) | OVCAR-5 | no (0) |
| COc1ccc(OC)c(-c2cn3c(n2)sc2ccccc23)c1 | OVCAR-5 | no (0) |
| CCCOC(=O)c1cc(O)c(O)c(O)c1 [PROPYL GALLATE] | OVCAR-5 | no (0) |
| COc1ccc(NC(=S)NNC(=O)c2cc(-c3ccccc3)nc3ccccc23)cc1 | OVCAR-5 | no (0) |
| N[C@H]1C2C3CC4C5CC(C42)C1(c1ccccc1)C53 (some centres not stated) | OVCAR-5 | no (0) |
| O=c1cnn(CCOCP(=O)(O)O)c(=O)[nH]1 | OVCAR-5 | no (0) |
| Cc1ccc(Sc2ccccc2N)cc1 | OVCAR-5 | no (0) |
| C/C(CN1C(=O)c2ccccc2C1=O)=N\NS(=O)(=O)c1ccc(C)cc1 | OVCAR-5 | no (0) |
| CCN(CC)CCOc1ccc(CCc2cc(OC)c(OC)c(OC)c2)cc1 | OVCAR-5 | no (0) |
| CC[N+]1(C)CCC(O)(c2ccc(Cl)c(Cl)c2)C(C(=O)c2ccc(Cl)c(Cl)c2)C1 (configuration not stated) | OVCAR-5 | no (0) |
| CN(C)c1ccc(/C=C/C=c2/c3ccccc3n3c2cc(-c2ccccc2)[n+]3C)cc1 | OVCAR-5 | yes (1) |
| O=C(CC(C(=O)c1cccs1)c1ccsc1)c1ccco1 (configuration not stated) | OVCAR-5 | no (0) |
| CC(C)C(OC(=O)c1ccc(NCc2cc(O)ccc2O)cc1)C(C)C | OVCAR-5 | no (0) |
| NC(=O)c1c([N+](=O)[O-])cc(C(F)(F)F)cc1[N+](=O)[O-] | OVCAR-5 | no (0) |
| N#CC(C(=O)C(=O)Nc1c(Cl)cccc1Cl)c1ccccc1 (configuration not stated) | OVCAR-5 | yes (1) |
| Cc1c(N2C(=O)CS(=O)(=O)C2c2cccc(Oc3ccccc3)c2)c(=O)n(-c2ccccc2)n1C (configuration not stated) | OVCAR-5 | no (0) |
